tested on: parental HEK cells; assay: HEK parental Agonist Counterscreen Assay (non-transfected cells); format: cell-based; conditions: HEK Agonist Activity; activity relative to known control
PROPERTY_MEASURED: Averaged Max % Response (±St. Dev.) (%)
# output: bare number, implied unit %

Ask | Give the measured Averaged Max % Response (±St. Dev.) for O=C(Cn1nc(Cc2ccncc2)c2ccccc2c1=O)NC(O)CCc1ccccc1 (centres unmarked) [SR-01000134029]
Reply | 19.31

Ask | Give the measured Averaged Max % Response (±St. Dev.) for O=C(Cn1nnc(-c2ccccc2)n1)NNC(=O)Cn1c(C(F)(F)F)nc2ccccc21 [SR-01000070891]
Reply | 8.31

Ask | Give the measured Averaged Max % Response (±St. Dev.) for CCOc1ccc(C(=O)NCCn2ccc3ccccc32)cc1OCC [SR-01000907288]
Reply | 14.88

Ask | Give the measured Averaged Max % Response (±St. Dev.) for COc1cc(-c2nnc(COc3ccc(Cl)cc3C)o2)cc(OC)c1OC [SR-01000504687]
Reply | −3.10

Ask | Give the measured Averaged Max % Response (±St. Dev.) for O=C(COc1ccccc1Cl)NNC(=O)CSc1ccc2ccccc2c1 [SR-01000071098]
Reply | 24.54

###

tested on: parental HEK cells; test: HEK parental Agonist Counterscreen Assay (non-transfected cells); assay type: cell-based; settings: Homo sapiens, HEK293; HEK Agonist Activity section of Table 4 (parental HEK counterscreen)
pEC50: −log10 of the molar value.
PROPERTY_MEASURED: pEC50

Ask | Give the measured pEC50 for Cc1cccc(COc2coc(COc3nccn3C)cc2=O)c1 [SR-01000916033]
Reply | < 4.85

Ask | Give the measured pEC50 for O=C(CN1CCN(Cc2ccc(F)cc2Cl)C1=O)NCc1ccccc1Cl [SR-01000125622]
Reply | < 4.85

Ask | Give the measured pEC50 for Cc1ccc(CNC(=O)Cn2nc(-c3ccc(C)cc3)ccc2=O)cc1 [SR-01000145456]
Reply | < 4.85

Ask | Give the measured pEC50 for C=C(Nc1ccc(-c2cn[nH]c2)cc1)N(C)Cc1cccc(C(=O)CC)c1 [SR-00000007008]
Reply | < 4.85

Ask | Give the measured pEC50 for CC(CCc1ccccc1)NC(=O)c1ccc2c(c1)C(Cc1ccccc1)C(=O)C[S+]2[O-] (stereo not shown) [SR-01000129880]
Reply | < 4.85

Ask | Give the measured pEC50 for CSc1ccc(CCNC(=O)Cn2ncc3c(=O)oc4ccccc4c32)cc1 [SR-01000105999]
Reply | < 4.85

Ask | Give the measured pEC50 for O=C(CN1CCN(C/C=C/c2ccccc2)CC1)NCCCc1ccccc1 [SR-01000062290]
Reply | < 4.83

Ask | Give the measured pEC50 for COc1ccc(NC(=O)NC(O)(O)c2cccc(C(C)=O)c2)cc1 [SR-01000428888]
Reply | < 4.79

Ask | Give the measured pEC50 for COc1cccc(CNC(=O)Nc2ccc(-c3cn[nH]c3)cc2)c1 [SR-00000005253]
Reply | < 4.85

Ask | Give the measured pEC50 for O=C(Cn1ncc2c1-c1ccccc1OC2)Nc1ccc(Cl)cc1 [SR-01000152099]
Reply | < 4.85

Ask | Give the measured pEC50 for Cc1ccccc1C(=O)NNC(=O)C(C)Oc1ccc(Cl)cc1Cl (stereo not shown) [SR-01000410694]
Reply | < 4.99

Ask | Give the measured pEC50 for CC(C)C(=O)NNC(=O)C(C)Oc1ccc(Cl)cc1Cl (stereo not shown) [SR-01000361172]
Reply | < 4.85

Ask | Give the measured pEC50 for CCC(=O)NNC(=O)C(C)Oc1ccc(Cl)cc1Cl (stereo not shown) [SR-01000316982]
Reply | < 4.85

Ask | Give the measured pEC50 for O=C(CCc1nc2ccccc2s1)NNC(=O)C1CCCCC1 [SR-01000068916]
Reply | < 4.82

Ask | Give the measured pEC50 for Cc1nc(CNC(=O)CCC2(Cc3cccc4ccccc34)CCC(=O)N2)cs1 (stereo not shown) [SR-01000187393]
Reply | < 4.85

Ask | Give the measured pEC50 for Cc1ccc(NC(=O)NNC(=O)COc2ccc(Cl)cc2)c(C)c1 [SR-01000309617]
Reply | < 4.84

Ask | Give the measured pEC50 for Cn1c(CCc2ccc(F)cc2F)nnc1C1=C(O)N=C2CC=CC21 (stereo not shown) [SR-01000922914]
Reply | < 4.85

Ask | Give the measured pEC50 for Cc1ccccc1SCC(=O)NNC(=O)C1CCCCC1 [SR-01000070173]
Reply | < 4.83

Ask | Give the measured pEC50 for C=C1N=C(NC2CCCCCC2)c2ccccc2N1 [SR-01000565308]
Reply | < 4.76

Cited source: patent US20250099420A1
